- System tested: T1, human CD81 mutant A164T (human, UniProt P60033 1-236, limits assumed)
- T1 construct: as m30; not shown: C-terminal V5 and 6xHis tags
- T1 sequence: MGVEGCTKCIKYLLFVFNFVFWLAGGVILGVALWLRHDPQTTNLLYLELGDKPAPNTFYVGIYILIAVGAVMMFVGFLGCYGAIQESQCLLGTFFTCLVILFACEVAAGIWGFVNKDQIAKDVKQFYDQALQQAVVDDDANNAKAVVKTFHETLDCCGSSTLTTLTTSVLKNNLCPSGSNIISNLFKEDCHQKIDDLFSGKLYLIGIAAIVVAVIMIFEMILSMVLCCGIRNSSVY
- Procedure text: ELISA
Value type: relative binding affinity

Q: Look up and state reported relative binding affinity for 002-H03 (antibody, human IgG4 S228P, lambda, V domains shown, IgG4 S228P) VH: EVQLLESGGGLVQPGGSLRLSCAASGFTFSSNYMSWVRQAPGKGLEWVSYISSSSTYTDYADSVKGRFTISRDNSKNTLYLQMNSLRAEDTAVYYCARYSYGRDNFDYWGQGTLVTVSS VL: QSVLTQPSSASGTPGQRVTISCTGSTSNIGAGYDTHWYQQLPGTAPKPLIYGNSNRPSGVPDRFSGSKSGTSASLAISGLRSEDEADYYCQSYDTNLSAWVFGGGTKLTVLG
A: < 20%

Q: Look up and state reported relative binding affinity for 003-F08 (antibody, human IgG4 S228P, lambda, V domains shown, IgG4 S228P) VH: EVQLLESGGGLVQPGGSLRLSCAASGFTFSSNYMSWVRQAPGKGPEWVSYISSSSTYADYADSVKGRFTISRDNSKNTLYLQMNSLRAEDTAVYYCARYSYGRDNFDYWGQGTLVTVSS VL: QSVLTQPSSASGTPGQRVTISCTGSTSNIGAGYDTHWYQQLPGTAPKLLIYGNSNRPSGVPDRFSGSKSGTSASLAISGLRSEDEADYYCQSYDTNLSAWVFGGGTKLTVLG
A: < 20%

Q: Look up and state reported relative binding affinity for 002-C09 (antibody, human IgG4 S228P, lambda, V domains shown, IgG4 S228P) VH: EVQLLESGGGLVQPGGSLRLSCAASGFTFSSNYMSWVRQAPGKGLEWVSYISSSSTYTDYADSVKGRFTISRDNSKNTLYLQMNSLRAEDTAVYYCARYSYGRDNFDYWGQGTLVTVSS VL: QSVLTQPASASGTPGQRVTISCTGSTSNIGAGYGTHWYQRLPGTAPKLLIYGNSNRPSGVPDRFSGSKSGTSASLAISGLRSEDEADYYCQSYDTNLSGWVFGGGTKLTVLG
A: < 20%
